biological target: HLA-B5801 (Homo sapiens, UniProt P01889, A329T/C349S/D201E/D98Y/E176V/E187L/E204Q/E69T/G107R/I218V/I90N/K202T/L105A/L119I/N104I/N87E/Q89R/Q94S/R106L/R155S/R180L/R86G/S101N/S121R/S35A/S48A/T118I/V127L/V306I/V36M/Y140S/Y91M); experiment: Competitive peptide binding assay, CIR-B5801; conditions: HMy2.CIR-B5801 cells, reference Cy5-[…], class from inhibition at 5 and 15 μM, flow cytometry MFI; read-out: Binding affinity with HLA-B5801
pIC50: −log10 of the molar value. Peptide text beside a SMILES is read from it.
property name: pIC50

As a guide, the following entries are already answered.
molecule: CC(C)C[C@H](NC(=O)[C@H](CC(C)C)NC(=O)[C@@H](NC(=O)[C@@H](NC(=O)[C@@H](NC(=O)[C@H](CCC(N)=O)NC(=O)[C@H](CCC(N)=O)NC(=O)[C@H](CCCCN)NC(=O)[C@@H](N)CCCCN)[C@@H](C)O)C(C)C)[C@@H](C)O)C(=O)O [Epitope Y196] (H-KKQQTVTLL-OH; N-terminus and C-terminus assumed)
pIC50: < 4.82

molecule: CSCC[C@H](NC(=O)[C@H](C)NC(=O)[C@H](CCC(=O)O)NC(=O)[C@H](Cc1ccc(O)cc1)NC(=O)[C@H](Cc1ccccc1)NC(=O)[C@H](CCC(=O)O)NC(=O)[C@@H]1CCCN1C(=O)[C@H](CCC(=O)O)NC(=O)[C@@H](N)Cc1c[nH]c2ccccc12)C(=O)O [Epitope Y200] (H-WEPEFYEAM-OH; N-terminus and C-terminus assumed)
pIC50: < 4.82

Let us move to another entry and its pIC50.
Please fill in: pIC50 reported for CC(C)C[C@H](NC(=O)[C@@H](NC(=O)[C@H](CCCNC(=N)N)NC(=O)[C@H](CO)NC(=O)[C@@H](NC(=O)[C@H](C)NC(=O)[C@@H](N)C(C)C)[C@@H](C)O)[C@@H](C)O)C(=O)N[C@@H](CO)C(=O)N[C@@H](Cc1ccc(O)cc1)C(=O)O [Epitope Y158] (H-VATSRTLSY-OH; N-terminus and C-terminus assumed) = < 4.82

###

Target: HLA-B1301 (Homo sapiens, UniProt P01889, A65T/A93T/A95T/D138N/D201E/D98Y/E176V/E204Q/E69M/E70A/G107R/K202T/L105A/L119I/N104T/N87E/Q94N/R106L/R155S/R169L/R180L/S101N/S121R/S35A/S48T/T118I/V127L/V36M/Y140L/Y91S)
Assay: Competitive peptide binding assay, CIR-B1301
Conditions: HMy2.CIR-B1301 cells, reference Cy5-[…], class from inhibition at 5 and 15 μM, flow cytometry MFI; read-out: Binding affinity with HLA-B1301
Method: Then, competitive peptide binding assays were performed.
Peptide text beside a SMILES is read from it.
property name: IC50

compound: CC[C@H](C)[C@H](NC(=O)[C@H](CC(N)=O)NC(=O)[C@@H](NC(=O)[C@H](CCC(=O)O)NC(=O)[C@@H]1CCCN1C(=O)[C@H](CC(N)=O)NC(=O)[C@H](Cc1ccccc1)NC(=O)[C@H](CO)NC(=O)[C@@H](N)Cc1c[nH]c2ccccc12)[C@@H](C)O)C(=O)O [Epitope Y297] (H-WSFNPETNI-OH; N-terminus and C-terminus assumed)
IC50: > 15 µM

compound: CSCC[C@H](NC(=O)[C@H](CCSC)NC(=O)[C@H](CO)NC(=O)[C@H](Cc1ccccc1)NC(=O)[C@H](Cc1c[nH]cn1)NC(=O)[C@H](CCCCN)NC(=O)[C@H](CCCNC(=N)N)NC(=O)[C@H](CC(C)C)NC(=O)[C@@H](N)Cc1ccc(O)cc1)C(=O)O [Epitope Y28] (H-YLRKHFSMM-OH; N-terminus and C-terminus assumed)
IC50: > 15 µM

Please fill in: IC50 reported for CC(C)[C@H](NC(=O)[C@@H](NC(=O)[C@@H](N)Cc1ccccc1)C(C)C)C(=O)N[C@@H](CO)C(=O)N[C@H](C(=O)NCC(=O)N[C@@H](Cc1ccc(O)cc1)C(=O)N[C@@H](Cc1c[nH]cn1)C(=O)N[C@@H](Cc1ccccc1)C(=O)O)[C@@H](C)O [Epitope Y167] (H-FVVSTGYHF-OH; N-terminus and C-terminus assumed) = > 15 µM
